- SYSTEM_UNDER_TEST: human ether-à-go-go-related gene (hERG) potassium channel (human, UniProt Q12809);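 further: peak tail current of the secondary pulse compared with the same well before compound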
- Sequence (Q12809 whole entry, looked up): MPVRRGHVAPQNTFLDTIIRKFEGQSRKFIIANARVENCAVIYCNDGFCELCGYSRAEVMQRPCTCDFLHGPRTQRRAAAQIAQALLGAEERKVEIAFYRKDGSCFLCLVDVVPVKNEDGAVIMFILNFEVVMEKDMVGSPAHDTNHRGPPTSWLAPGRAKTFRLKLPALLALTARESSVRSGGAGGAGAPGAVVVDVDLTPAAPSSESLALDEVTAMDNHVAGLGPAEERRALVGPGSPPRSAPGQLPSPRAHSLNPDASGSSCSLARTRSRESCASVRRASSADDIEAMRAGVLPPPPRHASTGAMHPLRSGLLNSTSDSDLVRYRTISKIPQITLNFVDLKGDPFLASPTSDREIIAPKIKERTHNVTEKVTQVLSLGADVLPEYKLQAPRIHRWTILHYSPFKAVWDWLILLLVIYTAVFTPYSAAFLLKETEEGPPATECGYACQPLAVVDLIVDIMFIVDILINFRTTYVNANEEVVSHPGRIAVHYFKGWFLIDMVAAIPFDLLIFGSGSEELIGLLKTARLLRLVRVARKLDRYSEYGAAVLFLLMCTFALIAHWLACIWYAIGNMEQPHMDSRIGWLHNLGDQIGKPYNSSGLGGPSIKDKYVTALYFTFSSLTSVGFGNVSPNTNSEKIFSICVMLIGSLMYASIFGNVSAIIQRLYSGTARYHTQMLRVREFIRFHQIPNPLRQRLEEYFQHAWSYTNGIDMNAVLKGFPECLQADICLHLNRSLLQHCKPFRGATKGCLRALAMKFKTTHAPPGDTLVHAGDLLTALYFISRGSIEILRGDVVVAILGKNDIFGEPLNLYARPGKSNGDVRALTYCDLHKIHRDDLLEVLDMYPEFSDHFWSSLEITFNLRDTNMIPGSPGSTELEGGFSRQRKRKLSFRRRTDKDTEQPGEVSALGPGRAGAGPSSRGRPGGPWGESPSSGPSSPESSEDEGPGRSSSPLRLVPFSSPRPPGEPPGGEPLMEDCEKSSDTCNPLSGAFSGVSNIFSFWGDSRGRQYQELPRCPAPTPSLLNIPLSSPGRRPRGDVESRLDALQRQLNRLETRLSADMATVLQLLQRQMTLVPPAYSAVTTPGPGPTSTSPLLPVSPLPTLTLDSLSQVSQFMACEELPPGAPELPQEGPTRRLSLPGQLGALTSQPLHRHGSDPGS
- MEASUREMENT_PROTOCOL: primary screen, population patch clamp on CHO cells stably expressing hERG; higher = less effect of the substance
About 14,000 (4.5%) of roughly 310,000 compounds showed an effect of 50% or more. The effect is printed as a negative number. Only a selection was taken, and strong results are over-represented in it overall.
Form field: hERG current change (%, negative = inhibition) at 10uM (one value per entry).
ENDPOINT_NAME: hERG current change (%, negative = inhibition) at 10uM (%)

>>> print(df.to_string())
                                   compound                         system_under_test   reading
0     COc1ccc2c(CC(=O)OCC(=O)NC(N)=O)coc2c1  human ether-à-go-go-related gene (hERG) potassium channel (human, UniProt Q12809)     0.524
1              COC(=O)NCc1ccc(CNC(=O)OC)cc1  human ether-à-go-go-related gene (hERG) potassium channel (human, UniProt Q12809)      4.84
2  COc1ccccc1CN1CCN(C(=O)COc2ccc3ccccc3c2)CC1  human ether-à-go-go-related gene (hERG) potassium channel (human, UniProt Q12809)       -36
3  COc1cccc(C(=O)N2CCN(C(=O)COc3ccc4ccccc4c3)CC2)c1  human ether-à-go-go-related gene (hERG) potassium channel (human, UniProt Q12809)     -47.4
4  O=C(CSc1nc2c([nH]c3ccccc32)c(=O)n1-c1ccccc1)NCC1CCCO1 (stereo not shown)  human ether-à-go-go-related gene (hERG) potassium channel (human, UniProt Q12809)      3.52
5  CCOCCCNC(=O)C(NC(=O)c1ccccn1)c1ccc(C)cc1 (stereo not shown)  human ether-à-go-go-related gene (hERG) potassium channel (human, UniProt Q12809)  -0.00042
6      CCN1C(=O)CSc2ccc(C(=O)NC3CCCCC3)cc21  human ether-à-go-go-related gene (hERG) potassium channel (human, UniProt Q12809)      -5.4
7  COc1cc(OC)cc(C(=O)N2CCN(C(=O)COc3ccc4ccccc4c3)CC2)c1  human ether-à-go-go-related gene (hERG) potassium channel (human, UniProt Q12809)     -64.8
8  COc1ccc(N2CCN(C(=O)COc3ccc4ccccc4c3)CC2)cc1  human ether-à-go-go-related gene (hERG) potassium channel (human, UniProt Q12809)      5.36
9                 COC(=O)Cc1coc2cc(OC)ccc12  human ether-à-go-go-related gene (hERG) potassium channel (human, UniProt Q12809)      11.9

====

The following molecules are shown together with reported hERG current change (%, negative = inhibition) at 10uM values.
- SYSTEM_UNDER_TEST: human ether-à-go-go-related gene (hERG) potassium channel (human, UniProt Q12809);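 further: peak tail current of the secondary pulse compared with the same well before compound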
- MEASUREMENT_PROTOCOL: primary screen, population patch clamp on CHO cells stably expressing hERG; higher = less effect of the substance
- Procedure: Briefly, Chinese hamster ovary (CHO) cells stably expressing the hERG channel were dislodged from tissue culture flasks and dispensed into PPC plates. […] During the recording, background leak currents were estimated by a 100 ms step to -80 mV from an initial holding potential of -70 mV and subtracted from the subsequent current measurement. The campaign was conducted in two phases using slight differences in recording protocol. […]
Screen size: about 310,000 compounds; about 14,000 (4.5%) showed an effect of 50% or more. The effect is printed as a negative number. Shown is part of a subset that was picked to be rich in strong results.
ENDPOINT_NAME: hERG current change (%, negative = inhibition) at 10uM (%)

                                    molecule  reading
 0  O=C(OCc1ccccc1Cl)c1cc([N+](=O)[O-])ccc1N1CCOCC1    -23.1
 1  Cc1ccc(S(=O)(=O)N(CC(=O)N2CCOCC2)C2CCCCC2)cc1    -23.3
 2  O=C(OCc1cccc(Cl)c1)c1cc([N+](=O)[O-])ccc1N1CCOCC1    -38.7
 3     CC(C)Sc1nc2c([nH]1)c(=N)ncn2Cc1ccccc1    -5.52
 4  Cc1ccc2nc(NC(=O)CSc3nc(=O)n(CCCN(C)C)c4c3CCC4)sc2c1    -50.2
 5  COc1ccc(S(=O)(=O)N2N=C(c3cccc(NS(C)(=O)=O)c3)CC2c2ccco2)cc1 (stereo not shown)    -3.61
 6  CN(C)CCCn1c2c(c(SCC(=O)Nc3ccc4c(c3)OCCO4)nc1=O)CCC2    -12.2
 7      COCCn1c(-c2ccc(OC)c(OC)c2)nc2ccccc21    -21.6
 8  CC(O)c1ccc2c(c1)OCCOCCN(C)CCOCCO2 (stereo not shown)    -1.64
 9        Cc1ccc(C(=O)NCCC(=O)Nc2ccccc2C)cc1     19.5
10  CCS(=O)(=O)Nc1ccc(C2=NN(S(=O)(=O)c3ccc(F)cc3)C(c3ccco3)C2)cc1 (stereo not shown)    -38.8
11  Cc1ccc(C(=O)N2CCC(C)CC2)cc1S(=O)(=O)N1CCCCC1    -10.2
12  Cc1cc(NC(=O)CSc2nc(=O)n(CCCN(C)C)c3c2CCCC3)no1    -7.06
13  CCN(CC)CCn1c2c(c(SCC(=O)Nc3nc4ccc(C)cc4s3)nc1=O)CCC2    -30.4
14  Cc1ccc2nc(NC(=O)CSc3nc(=O)n(CCN(C)C)c4c3CCCC4)sc2c1    -50.2
15  CC(=O)NC(Cc1ccccc1C)C(=O)NC1CCN(c2ncccc2[N+](=O)[O-])CC1 (stereo not shown)    -1.73
16  Cc1cc(NC(=O)CSc2nc(=O)n(CCN(C)C)c3c2CCCC3)no1    -6.91
17            O=C(CCN1CCCCC1)c1ccc2c(c1)OCO2   -0.169
18  CC(C)CCC(CCN1CCOCC1)c1ccc2c(c1)OCO2.Cl (stereo not shown)    -72.9
19  CCOC(=O)C1CCN(CC(O)COC(CC)c2ccccc2)CC1.Cl (stereo not shown)    -63.7
20  Cc1nc(N2CCC(C(N)=O)CC2)c2nnn(Cc3ccccc3)c2n1     16.3
21  Cc1ccc(C)c(COC(=O)c2cc([N+](=O)[O-])ccc2N2CCOCC2)c1     5.73
22      O=S(=O)(c1ccc(NC2CCCCC2)cc1)N1CCOCC1    -23.7
23  COC(=O)c1ccc(C)c(NC(=O)c2ccc(CN3CCc4ccccc4C3)cc2)c1     6.57
24  COC(=O)c1cc2sc(Cl)cc2n1CC(=O)Nc1ccc(OC)c(OC)c1OC    -68.9
25  CC(=O)Nc1ccc(S(=O)(=O)NCc2nnnn2-c2ccc(F)cc2)cc1     3.41
26  O=C(CNC(=O)c1ccc(S(=O)(=O)N2CCCC2)cc1)N/N=C/c1ccc(Cl)cc1Cl    -3.34
27  Cc1ccc(S(=O)(=O)N(CC(=O)N2CCCC2)C2CCCCC2)cc1    -37.7
28  OC(COC(c1ccccc1)c1ccccc1)CN1CCCCC1 (stereo not shown)    -62.9
29  CS(=O)(=O)Nc1cccc(C2=NN(S(=O)(=O)c3ccccc3)C(c3ccco3)C2)c1 (stereo not shown)    -29.9
30  COC(=O)c1cc2occc2n1CC(=O)Nc1ccc(OC)c(OC)c1OC    0.151
31  O=C(OCc1ccc([N+](=O)[O-])cc1)c1cc(S(=O)(=O)N2CCCCC2)ccc1N1CCOCC1    -75.9
32  S=c1[nH]nc(-c2ccncc2)n1/N=C/C(Cl)=C\c1ccccc1     23.3
33  Cl.OC(COCc1ccccc1)CN1CCCCC1 (stereo not shown)     6.73
34  CN(C)CCCn1c2c(c(SCC(=O)Nc3nccs3)nc1=O)CCC2    -9.32
35  COC(=O)C1=C(COc2ccccc2)NC(=O)NC1c1ccc(Br)cc1 (stereo not shown)    0.599
36  CCc1noc(C)c1C(=O)N1CCN(S(=O)(=O)c2cc(C)ccc2C)CC1    -1.66
37  Cc1ccc(COC(=O)c2cc(S(=O)(=O)N3CCCCC3)ccc2N2CCOCC2)cc1    -13.9
38  CCOC(=O)C1CCCN(CCC(C)c2ccccc2)C1 (stereo not shown)    -36.5
39  CC(C)CCC(CCN1CCCC1)c1ccc2c(c1)OCO2.O=C(O)C(=O)O (stereo not shown)    -78.1
